# Assay Info: Drug-drug interaction study: bardoxolone methyl alone and with itraconazole in healthy volunteers
# Condition Label: human, plasma, oral, Mean t1/2, 10 mg single dose + itraconazole 200 mg daily
Measured Attribute: half-life

Reported half-life for COC(=O)[C@]12CCC(C)(C)C[C@H]1[C@H]1C(=O)C=C3[C@@]4(C)C=C(C#N)C(=O)C(C)(C)[C@@H]4CC[C@@]3(C)[C@]1(C)CC2 : what is it?
95.9 h

----------
# Assay Info: Drug-drug interaction study: bardoxolone methyl alone and with itraconazole in healthy volunteers
# Condition Label: human, plasma, oral, t½, Median, Period 2: single 10 mg bardoxolone methyl with daily 200 mg itraconazole, plasma, n = 15
Measured Attribute: half-life
The number alone won't do; follow it with the unit.

State the recorded half-life for this entry: COC(=O)[C@]12CCC(C)(C)C[C@H]1[C@H]1C(=O)C=C3[C@@]4(C)C=C(C#N)C(=O)C(C)(C)[C@@H]4CC[C@@]3(C)[C@]1(C)CC2
97.7 h

----------
# Assay Info: Drug-drug interaction study: bardoxolone methyl alone and with itraconazole in healthy volunteers
# Condition Label: human, plasma, oral, Cmax, Geom. Mean, Bardoxolone Methyl + Itraconazole (B), paired analysis n = 15
Measured Attribute: Cmax (ng/mL)
Hi! Could you send only the number? It should be in ng/mL, unit omitted.

I am curious: what Cmax value has been reported for COC(=O)[C@]12CCC(C)(C)C[C@H]1[C@H]1C(=O)C=C3[C@@]4(C)C=C(C#N)C(=O)C(C)(C)[C@@H]4CC[C@@]3(C)[C@]1(C)CC2 ?
16.6

----------
# Assay Info: Drug-drug interaction study: bardoxolone methyl alone and with itraconazole in healthy volunteers
# Condition Label: human, plasma, po, 10 mg, Vz/F, GM, Period 1: single oral 10 mg bardoxolone methyl alone, fasted, plasma, n = 16
Measured Attribute: Vd/F (L)
# value in L; strip the unit string

# Vd/F lookup, item COC(=O)[C@]12CCC(C)(C)C[C@H]1[C@H]1C(=O)C=C3[C@@]4(C)C=C(C#N)C(=O)C(C)(C)[C@@H]4CC[C@@]3(C)[C@]1(C)CC2
9700

----------
# Assay Info: Drug-drug interaction study: bardoxolone methyl alone and with itraconazole in healthy volunteers
# Condition Label: human, plasma, oral, AUC0-∞, GM, Period 2: single 10 mg bardoxolone methyl with daily 200 mg itraconazole, plasma, n = 15
Measured Attribute: AUC(0-inf) (ng·h/mL)
Your answer is read as ng·h/mL, so omit the unit and give the number.

For the compound COC(=O)[C@]12CCC(C)(C)C[C@H]1[C@H]1C(=O)C=C3[C@@]4(C)C=C(C#N)C(=O)C(C)(C)[C@@H]4CC[C@@]3(C)[C@]1(C)CC2 [Bardoxolone methyl] , what AUC(0-inf) is on record?
241
